Data provenance is patent US10745382B2.

Item-by-item account of IC50
Measured On: PD-1/PD-L1 (Homo sapiens)
Construct: made in house; host or cells: HEK293T
Sequence (Q9NZQ7 with tags, fused parts or gaps): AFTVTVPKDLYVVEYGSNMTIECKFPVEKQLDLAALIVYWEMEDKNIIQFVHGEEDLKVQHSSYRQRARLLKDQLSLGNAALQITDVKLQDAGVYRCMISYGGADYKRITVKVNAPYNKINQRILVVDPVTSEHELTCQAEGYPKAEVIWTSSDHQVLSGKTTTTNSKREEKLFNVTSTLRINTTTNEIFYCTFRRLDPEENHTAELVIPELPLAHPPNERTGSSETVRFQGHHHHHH
Assay Details: PD-1/PD-L1 Homogenous Time-Resolved Fluorescence (HTRF) binding assay
Assay Context: PD-L1-His 10 nM, PD-1-Ig 20 nM; value given as range class; read-out: Range or IC50
Outcome Measure: IC50

{"Compound": "Cc1c(CCCCN2CC[C@@H](O)C2)cccc1-c1cccc(COc2cc(OCc3cncc(C#N)c3)c(CN[C@@H](CN)C(=O)O)cc2Cl)c1C [Example 4069]", "Outcome Measure": "IC50", "Result": "0.21 to 10 nM"}
{"Compound": "Cc1c(OCCCN2CC[C@H](CO)[C@H](O)C2)cccc1-c1cccc(COc2cc(OCc3cncc(C#N)c3)c(CNC(CO)CO)cc2Cl)c1Cl [Example 2298]", "Outcome Measure": "IC50", "Result": "0.21 to 10 nM"}
{"Compound": "COc1cc(OCc2cccc(-c3cccc(OCCCN4CC[C@@H](O)C4)c3C)c2C)c(Cl)cc1CN[C@@](C)(CO)C(=O)O [Example 3033]", "Outcome Measure": "IC50", "Result": "0.21 to 10 nM"}
{"Compound": "Cc1c(OCCCN2CC[C@@H](O)C2)cccc1-c1cccc(COc2cc(OCC(=N)N3CC[C@@H](O)C3)c(CNC(CO)CO)cc2Cl)c1Cl [Example 2315]", "Outcome Measure": "IC50", "Result": "0.21 to 10 nM"}
{"Compound": "Cc1c(COc2cc(OCc3cncc(C#N)c3)c(CN[C@@](C)(CO)C(=O)O)cc2Cl)cccc1-c1cccc(OCCN2CCOCC2)c1 [Example 1002]", "Outcome Measure": "IC50", "Result": "10 to 100 nM"}
{"Compound": "Cc1c(COc2cc(OCc3cncc(C(N)=O)c3)c(CN[C@](C)(CO)C(=O)O)cc2Cl)cccc1-c1cccc(OCCCN2CCC(O)(C(=O)O)C2)c1C (stereo partly drawn) [Example 1057]", "Outcome Measure": "IC50", "Result": "0.21 to 10 nM"}
